All figures here come from patent US20260139048A1.

This listing pairs binders with measured Top (RLU).
- experimentalTarget: T1, TIGIT on TIGIT-over expressing NFAT-Luc/Jurkat effector cells (GenScript reporter cell line) (UniProt Q495A1 22-244, limits assumed)
- T1 sequence (looked up): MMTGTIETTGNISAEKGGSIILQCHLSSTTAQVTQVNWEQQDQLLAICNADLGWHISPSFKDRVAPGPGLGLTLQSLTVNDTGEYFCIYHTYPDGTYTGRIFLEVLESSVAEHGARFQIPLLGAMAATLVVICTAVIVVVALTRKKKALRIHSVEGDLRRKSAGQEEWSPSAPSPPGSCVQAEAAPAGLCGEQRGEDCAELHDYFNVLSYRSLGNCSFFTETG
- assaySummary: cell-based or functional assay
reportedEndpoint: Top (RLU)

1) huTIGIT-6-4 (antibody, human IgG1, kappa, V domains shown, Humanized IgG; also called 6VH6.M7 + 6VL1.M1) VH: QVQLVQSGAEVKKPGASVKVSCKASGYTFTENAMHWVRQAPGQRLEWIGGINPNNAGTSYSQKFQGRATLTVDTSASTAYMELSSLRSEDTAVYYCTRSSYYRYDLDYWGQGTTVTVSS VL: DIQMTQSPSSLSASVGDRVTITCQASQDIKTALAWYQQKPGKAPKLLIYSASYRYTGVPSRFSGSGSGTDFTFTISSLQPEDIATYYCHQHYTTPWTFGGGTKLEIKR: 128000
2) huTIGIT-19-4 (antibody, human IgG1, kappa, V domains shown, Humanized IgG; also called 19VH4.M10 + 19VL1.M7) VH: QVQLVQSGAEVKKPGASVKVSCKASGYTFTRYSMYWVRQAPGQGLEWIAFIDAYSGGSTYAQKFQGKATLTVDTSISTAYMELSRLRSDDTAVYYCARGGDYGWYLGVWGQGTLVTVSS VL: DIQMTQSPSSLSASVGDRVTITCRASQSIYSYLSWYQQKPGKAPKLLIYNAKSLPSGVPSRFSGSGSGTDFTLTISSLQPEDFATYYCQHHYGNPLTFGQGTKVEIKR: 148000
3) huTIGIT-6-2 (antibody, human IgG1, kappa, V domains shown, Humanized IgG; also called 6VH6.M5 + 6VL1.M1) VH: QVQLVQSGAEVKKPGASVKVSCKASGYTITENTMHWVRQAPGQRLEWIGGINPNNAGTSYSQKFQGRATLTVDTSASTAYMELSSLRSEDTAVYYCTRSSYYRYDLDYWGQGTTVTVSS VL: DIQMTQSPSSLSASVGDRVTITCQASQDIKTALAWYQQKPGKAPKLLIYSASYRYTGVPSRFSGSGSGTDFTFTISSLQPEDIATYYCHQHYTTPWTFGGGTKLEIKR: 129000
